# System: A. baumannii ATCC 19606
# methodSummary: microbe, parasite or virus in culture
# Assay type: cell-based
# particulars: Acinetobacter baumannii, ATCC19606, read-out: MIC, A. baumannii ATCC 19606
measuredAttribute: MIC

Consider the following illustrative entries.
CS(=O)(=O)NC(C(=O)N[C@H]1Cc2cccc(C(=O)O)c2OB1O)c1ccc(P(=O)(O)O)cc1 (stereo partly drawn) :: > 128 µg/mL
O=C(O)c1cccc2c1OB(O)[C@@H](NC(=O)[C@H](NC(=O)[C@@H]1CCCN1)c1ccc(P(=O)(O)O)cc1)C2 :: > 128 µg/mL
CS(=O)(=O)N1CCC[C@@H]1C(=O)N[C@@H](C(=O)N[C@H]1Cc2cccc(C(=O)O)c2OB1O)c1ccc(P(=O)(O)O)cc1 :: > 128 µg/mL
CCN1CCN(C(=O)NC(C(=O)N[C@H]2Cc3cccc(C(=O)O)c3OB2O)c2ccc(P(=O)(O)O)c(F)c2O)C(=O)C1=O (stereo partly drawn) :: 32 to 64 µg/mL
CCN1CCN(C(=O)N[C@H](C(=O)N[C@H]2Cc3ccc(F)c(C(=O)O)c3OB2O)c2ccc(P(=O)(O)O)cc2)C(=O)C1=O (single isomer, unassigned) :: > 128 µg/mL

Requested read-out: MIC. Entry: O=C(O)c1cccc2c1OB(O)[C@@H](NC(=O)C(NC(=O)C1CC1)c1ccc(P(=O)(O)O)cc1)C2 (stereo partly drawn) > 128 µg/mL

# lookup: MIC of O=C(O)c1cccc2c1OB(O)[C@@H](NC(=O)[C@H](NC(=O)N1CCNC1=O)c1ccc(P(=O)(O)O)cc1)C2 32 to 64 µg/mL

Suppose we examine the compound O=C(O)c1cccc2c1OB(O)[C@@H](NC(=O)[C@H](NC(=O)c1cccn(C(F)F)c1=O)c1ccc(P(=O)(O)O)cc1)C2 (single isomer, unassigned) ; what MIC value has been reported? > 128 µg/mL

Look up MIC: CN1CCC[C@@H]1C(=O)N[C@@H](C(=O)N[C@H]1Cc2cccc(C(=O)O)c2OB1O)c1ccc(P(=O)(O)O)cc1 (racemic) > 128 µg/mL

Name the recorded MIC for CC(C)(C)C(=O)NC(C(=O)N[C@H]1Cc2cccc(C(=O)O)c2OB1O)c1ccc(P(=O)(O)O)cc1 (stereo partly drawn) . 32 to 64 µg/mL
